- protocol_details: Cell viability assay (AlamarBlue) in HepAD38 cells
- study_conditions: human
Provide the recorded CC50 at 6 days for the entries that follow.

INSERT INTO measurements (compound, assay_readout, result) VALUES
  ('O=C(c1cc2c(Cl)cc(F)cc2[nH]1)N1CCc2[nH]ncc2C1', 'CC50 at 6 days', '> 100 µM'),
  ('O=C(c1cc2ccccc2[nH]1)N1CCc2[nH]nc(C(=O)N3CCC(F)(F)CC3)c2C1', 'CC50 at 6 days', '> 10 µM'),
  ('CN(CCC(=O)O)C(=O)CCN(C)C(=O)c1[nH]nc2c1CN(C(=O)c1cc3ccccc3[nH]1)CC2', 'CC50 at 6 days', '> 10 µM'),
  ('COCC1(N(C)C(=O)c2n[nH]c3c2CN(C(=O)c2cc4c(Cl)cccc4[nH]2)CC3)CC1', 'CC50 at 6 days', '> 10 µM');

For each listed entry, give its CC50 at 6 days.
1. CN(C(=O)c1n[nH]c2c1CN(C(=O)c1cc3cc(F)c(Cl)cc3[nH]1)CC2)C1(CO)CC1
2. O=C(c1cc2ccccc2[nH]1)N1CCc2[nH]nc(C(=O)N3CCCC3)c2C1
3. CN(CCO)C(=O)c1n[nH]c2c1CN(C(=O)c1cc3c(F)c(F)c(F)cc3[nH]1)CC2
4. COCC1(N(C(=O)c2n[nH]c3c2CN(C(=O)c2cc4ccccc4[nH]2)CC3)C(C)C)CC1
5. COCC1(N(C)C(=O)c2n[nH]c3c2CN(C(=O)c2cc4cc(F)cc(F)c4[nH]2)CC3)CC1
6. O=C(c1cc2ccccc2[nH]1)N1CCc2[nH]nc(C(=O)N3Cc4cn[nH]c4C3)c2C1

Reply |
> 10 µM
> 100 µM
> 10 µM
> 10 µM
> 10 µM
> 10 µM

Go through the items and report each one's CC50 at 6 days.
1. COCC1(N(C)C(=O)c2n[nH]c3c2CN(C(=O)c2cc4ccccc4[nH]2)CC3)CC1
2. O=C(c1cc2ccccc2[nH]1)N1CCc2[nH]nc(-c3cscn3)c2C1
3. CN(C(=O)c1n[nH]c2c1CN(C(=O)c1cc3ccccc3[nH]1)CC2)C1(COCC(F)F)CC1
4. O=C(c1cc2c(Cl)cc(F)cc2[nH]1)N1CCc2[nH]nc(C(=O)N3CCCC34CC4)c2C1
5. O=C(c1cc2ccccc2[nH]1)N1CCc2[nH]nc(C(=O)N3CCCCC3)c2C1

Reply |
> 10 µM
> 100 µM
> 10 µM
> 10 µM
> 32 µM

====

- tested_system: HBV core protein (UniProt P03146)
- Construct: fused on or other part: BODIPY-FL maleimide label on the C-terminal Cys150
- Sequence (P03146 whole entry, looked up, the tested form may be a part): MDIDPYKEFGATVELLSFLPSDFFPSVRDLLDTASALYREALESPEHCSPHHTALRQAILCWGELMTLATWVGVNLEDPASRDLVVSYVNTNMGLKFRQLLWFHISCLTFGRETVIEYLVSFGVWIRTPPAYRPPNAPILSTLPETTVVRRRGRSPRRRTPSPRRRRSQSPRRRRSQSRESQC
- protocol_details: Biochemical capsid assembly assay (fluorescence quenching)
- Set-up: species or system hepatitis B virus
- study_conditions: read-out: Assembly Activity (IC50); BODIPY-FL labelled core protein, 300 μM NaCl, read 6 min after start
assay_readout: IC50

Solved entries (count: 3):
INSERT INTO results (molecule, assay_readout, result) VALUES
  ('O=C(c1cc2ccccc2[nH]1)N1CCc2[nH]nc(C(=O)N3CC4COCC4C3)c2C1 (stereo not shown)', 'IC50', '< 100 µM'),
  ('COCC1(N(C)C(=O)c2n[nH]c3c2CN(C(=O)c2cc4ccc(F)cc4[nH]2)CC3)CC1', 'IC50', '< 5 µM'),
  ('CS(=O)(=O)CCNC(=O)c1n[nH]c2c1CN(C(=O)c1cc3ccccc3[nH]1)CC2', 'IC50', '< 100 µM');

Provide reported IC50 for each item, in the same order as listed.
1. COCC1(N(C)C(=O)c2n[nH]c3c2CN(C(=O)c2cc4c(F)c(F)ccc4[nH]2)CC3)CC1
2. CN(CCO)C(=O)c1n[nH]c2c1CN(C(=O)c1cc3cc(F)c(F)cc3[nH]1)CC2
3. CCc1cc(F)cc2[nH]c(C(=O)N3CCc4[nH]nc(C(=O)N(C)C5(COC)CC5)c4C3)cc12
4. COCC1(N(C)C(=O)c2n[nH]c3c2CN(C(=O)c2cc4c(C(F)F)cccc4[nH]2)CC3)CC1
5. [2H]C([2H])([2H])N(C(=O)c1n[nH]c2c1CN(C(=O)c1cc3ccccc3[nH]1)CC2)C1(COC)CC1

Reply |
1: < 5 µM; 2: < 5 µM; 3: < 5 µM; 4: < 5 µM; 5: < 5 µM

Below is a list of molecules. For each, state its recorded IC50.
1. CCc1cc(F)cc2[nH]c(C(=O)N3CCc4n[nH]c(C(=O)N(C)C5CC5)c4C3)cc12
2. O=C(c1cc2c(F)c(F)ccc2[nH]1)N1CCc2n[nH]c(-c3cscn3)c2C1
3. CN(C(=O)c1n[nH]c2c1CN(C(=O)c1cc3ccccc3[nH]1)CC2)C(C)(C)CO
4. O=C(c1cc2c(Cl)cc(F)cc2[nH]1)N1CCc2[nH]nc(C3CCCO3)c2C1 (stereo not shown)
5. Cc1cccc2[nH]c(C(=O)N3CCc4n[nH]c(-c5cscn5)c4C3)cc12
6. COCC1(N(C)C(=O)c2n[nH]c3c2CN(C(=O)c2cc4c(C(C)(F)F)cc(F)cc4[nH]2)CC3)CC1
7. CCc1cccc2[nH]c(C(=O)N3CCc4n[nH]c(C(=O)N(C)C5CC5)c4C3)cc12
8. CC1(C)CCCCN1C(=O)c1n[nH]c2c1CN(C(=O)c1cc3ccccc3[nH]1)CC2

Reply |
< 5 µM
< 5 µM
5 to 10 µM
< 5 µM
< 5 µM
< 5 µM
< 5 µM
5 to 10 µM

Okay, here is my list. What is IC50 for each of these?
1. COCC1(N(CC(F)(F)F)C(=O)c2n[nH]c3c2CN(C(=O)c2cc4ccccc4[nH]2)CC3)CC1
2. CC(CO)N(C)C(=O)c1n[nH]c2c1CN(C(=O)c1cc3ccccc3[nH]1)CC2 (stereo not shown)
3. O=C(c1cc2ccccc2[nH]1)N1CCc2[nH]nc(C(=O)N3CCC[C@H]3CO)c2C1
4. O=C(c1cc2cc(Cl)ccc2[nH]1)N1CCc2[nH]ncc2C1
5. COCC1(N(C)C(=O)c2n[nH]c3c2CN(C(=O)c2cc4ccccc4[nH]2)CC3)CC1
6. Cc1cc(F)cc2[nH]c(C(=O)N3CCc4[nH]nc(C5CCCO5)c4C3)cc12 (stereo not shown)
7. COCC1(N(C(=O)c2n[nH]c3c2CN(C(=O)c2cc4ccccc4[nH]2)CC3)C(C)C)CC1

Reply |
< 5 µM
5 to 10 µM
< 100 µM
< 100 µM
< 5 µM
< 5 µM
< 5 µM

Respectfully, I request IC50 for each entry included below.
1. CC(C)(C)OC(=O)N[C@H]1CCN(C(=O)c2n[nH]c3c2CN(C(=O)c2cc4ccccc4[nH]2)CC3)C1
2. O=C(c1cc2ccccc2[nH]1)N1CCc2[nH]nc(C(=O)N3CCS(=O)(=O)CC3)c2C1

Reply |
< 100 µM
< 100 µM

====

Can you tell me pIC50 for the items I'm about to list?
- tested_system: HBV core protein (UniProt P03146)
- Construct: fused on or other part: BODIPY-FL maleimide label on the C-terminal Cys150
- protocol_details: Biochemical capsid assembly assay (fluorescence quenching)
- Design: species or system hepatitis B virus
- study_conditions: read-out: Assembly Activity (IC50); BODIPY-FL labelled core protein, 300 μM NaCl, read 6 min after start
pIC50: −log10 of the molar value.

INSERT INTO assay_data (chem_smiles, tested_system, result) VALUES
  ('CON=C(C)c1n[nH]c2c1CN(C(=O)c1cc3ccccc3[nH]1)CC2', 'HBV core protein (UniProt P03146)', '> 4.00'),
  ('O=C(c1cc2ccccc2[nH]1)N1CCc2[nH]nc(C(=O)N3CC[C@@H](O)C3)c2C1', 'HBV core protein (UniProt P03146)', '> 4.00'),
  ('CN(C(=O)c1n[nH]c2c1CN(C(=O)c1cc3ccccc3[nH]1)CC2)C1(CO)CC1', 'HBV core protein (UniProt P03146)', '> 5.30'),
  ('CCOCC1(N(C)C(=O)c2n[nH]c3c2CN(C(=O)c2cc4ccccc4[nH]2)CC3)CC1', 'HBV core protein (UniProt P03146)', '> 5.30');

Ask | State the measured pIC50 (HBV core protein (UniProt P03146)) of CN(C(=O)c1[nH]nc2c1CN(C(=O)c1cc3c(F)cc(F)cc3[nH]1)CC2)C1CC1
Reply | > 5.30

====

Exercise: for every item that follows, state its recorded pIC50.
- tested_system: HBV core protein (UniProt P03146)
- Construct: fused on or other part: BODIPY-FL maleimide label on the C-terminal Cys150
- protocol_details: Biochemical capsid assembly assay (fluorescence quenching)
- Design: species or system hepatitis B virus
- study_conditions: read-out: Assembly Activity (IC50); BODIPY-FL labelled core protein, 300 μM NaCl, read 6 min after start
pIC50: −log10 of the molar value.

Example cases with answers are listed next.
INSERT INTO assay_data (molecule, assay_readout, result) VALUES
  ('CON(C)C(=O)c1n[nH]c2c1CN(C(=O)c1cc3c(C)cc(F)cc3[nH]1)CC2', 'pIC50', '> 5.30'),
  ('CN(C(=O)c1n[nH]c2c1CN(C(=O)c1cc3ccccc3[nH]1)CC2)C1COC1', 'pIC50', '5.00 to 5.30'),
  ('CC(C)OC(=O)[C@H](C)NP(=O)(OCCCN(C)C(=O)c1n[nH]c2c1CN(C(=O)c1cc3c(Cl)cccc3[nH]1)CC2)Oc1ccccc1 (some centres unmarked)', 'pIC50', '> 5.30'),
  ('COCC1(N(C)C(=O)c2n[nH]c3c2CN(C(=O)c2cc4c(Cl)cc(F)cc4[nH]2)CC3)CC1', 'pIC50', '> 5.30'),
  ('CC(C)(C)OC(=O)N[C@@H]1CCN(C(=O)c2n[nH]c3c2CN(C(=O)c2cc4ccccc4[nH]2)CC3)C1', 'pIC50', '> 5.30'),
  ('O=C(c1cc2ccccc2[nH]1)N1CCc2[nH]nc(CO)c2C1', 'pIC50', '5.00 to 5.30');

I would be grateful if you could provide pIC50 for each of the following entries.
1. CN(C(=O)c1[nH]nc2c1CN(C(=O)c1cc3c(Cl)c(F)ccc3[nH]1)CC2)C1CC1
2. CN(C(=O)c1n[nH]c2c1CN(C(=O)c1cc3ccccc3[nH]1)CC2)[C@H]1CC[C@H](O)CC1

Reply |
["> 5.30", "> 4.00"]

Provide each entry's pIC50 from the list below.
1. CN(CCO)C(=O)c1n[nH]c2c1CN(C(=O)c1cc3c(C(F)F)ccc(F)c3[nH]1)CC2
2. CC(C)OC(=O)[C@H](C)NP(=O)(OCCN(C)C(=O)c1n[nH]c2c1CN(C(=O)c1cc3ccccc3[nH]1)CC2)Oc1ccccc1 (some centres unmarked)
3. CN(C(=O)c1n[nH]c2c1CN(C(=O)c1cc3ccccc3[nH]1)CC2)C1(CCC(=O)O)CC1

Reply |
1. > 5.30
2. 5.00 to 5.30
3. 5.00 to 5.30
